- TEST SUMMARY: AUC (0 to 4 hrs) in mouse at 20 mg/kg
- Format: ADME, organism-based
- Set-up: time < 4 hr, dose 20 mg/kg
- CONDITION SET: plasma
MEASURED ATTRIBUTE: AUC(0-t) at 4 h (µM·h)

• Cc1cc(N2CCN(C(=O)CCCF)CC2)cc2[nH]c(-c3c(NC[C@@H](O)c4cccc(Cl)c4)cc[nH]c3=O)nc12 = 4.5
• COC(=O)N1CCN(c2cc(C)c3nc(-c4c(NC[C@@H](O)c5cccc(Cl)c5)cc[nH]c4=O)[nH]c3c2)CC1 = 57.1
• CNC(=O)CN1CCN(c2cc(C)c3nc(-c4c(NC[C@@H](O)c5cccc(Cl)c5)cc[nH]c4=O)[nH]c3c2)CC1 = 1.6
• COCCN1CCN(c2cc(C)c3nc(-c4c(NC[C@@H](O)c5cccc(Cl)c5)cc[nH]c4=O)[nH]c3c2)CC1 = 11.1
• Cc1cc(N2CCN(CCC#N)CC2)cc2nc(-c3c(NC[C@@H](O)c4cccc(Cl)c4)cc[nH]c3=O)[nH]c12 = 22.1

[A] Cc1cc(N2CCN(CCCF)CC2)cc2[nH]c(-c3c(NC[C@@H](O)c4cccc(Cl)c4)cc[nH]c3=O)nc12
[B] CCOC(=O)N1CCN(c2cc(C)c3nc(-c4c(NC[C@@H](O)c5cccc(Cl)c5)cc[nH]c4=O)[nH]c3c2)CC1
### Prompt Hi, I'm comparing two records. Which one has the lower AUC(0-t) at 4 h, A or B ? Answer = label.
### Response A

====

- TEST SUMMARY: Oral bioavailability in rat at 75 mg/kg
- Format: ADME, organism-based
- CONDITION SET: in vivo
MEASURED ATTRIBUTE: bioavailability (%)
Report the value in % with no unit label.

### Prompt Item COCCN1CCN(c2cc(C)c3nc(-c4c(NC[C@@H](O)c5cccc(Cl)c5)cc[nH]c4=O)[nH]c3c2)CC1 has what recorded bioavailability?
### Response 26

====

- TEST SUMMARY: Half life in rat at 5 mg/kg, iv and 75 mg/kg, po
- Type: ADME, organism-based
- CONDITION SET: in vivo
MEASURED ATTRIBUTE: half-life (h)
The reply should contain only the number, in h.

### Prompt What value of half-life has been reported for the following molecule? COCCN1CCN(c2cc(C)c3nc(-c4c(NC[C@@H](O)c5cccc(Cl)c5)cc[nH]c4=O)[nH]c3c2)CC1
### Response 1.9
